Assay: clinical
Conditions: human, in vivo, 5 mg/m2, Mean t1/2
Property: half-life (h)
// units = h; emit number, no label

Query: Read the entry Nc1ccccc1NC(=O)c1ccc(CNC(=O)OCc2cccnc2)cc1 and write its reported half-life.
Result: 133

----------
Experiment: clinical
Conditions: human, in vivo, 6 mg/m2, Mean Cmax
Protocol: Histone H3 and H4 acetylation was analyzed in peripheral blood mononuclear cells (PBMCs) by immunohistochemical detection. Blood samples (5 ml) were taken at the following times: Blood was centrifuged for 10 minutes at 2000 g at room temperature within approximately 30 minutes after withdrawal; plasma was separated and stored at −18° C. to −25° C. until analysis.
Property: Cmax
Write your answer as a measured quantity: the number, then the unit.

Query: Read the entry Nc1ccccc1NC(=O)c1ccc(CNC(=O)OCc2cccnc2)cc1 [SNDX-275] and write its reported Cmax.
Result: 37.3 ng/mL

----------
Experiment: Plasma pharmacokinetics of oral SNDX-275 in patients with advanced and refractory solid tumors or lymphoma (Example 2)
Type: in vivo
Details: human, plasma, oral, 8 mg/m2, 8 mg/m^2, q14-day, first dose, fed, 5 patients
Property: Cmax (ng/mL)
// units = ng/mL; emit number, no label

Query: Read the entry Nc1ccccc1NC(=O)c1ccc(CNC(=O)OCc2cccnc2)cc1 and write its reported Cmax.
Result: 15.5

----------
Experiment: Plasma pharmacokinetics of oral SNDX-275 in patients with advanced and refractory solid tumors or lymphoma (Example 2)
Type: in vivo
Conditions: human, plasma, oral, 6 mg/m2, 6 mg/m^2, q14-day, first dose, fed, 6 patients; read-out: Tmax Median
Property: Tmax (h)
// units = h; emit number, no label

Query: Read the entry Nc1ccccc1NC(=O)c1ccc(CNC(=O)OCc2cccnc2)cc1 and write its reported Tmax.
Result: 2

----------
Experiment: clinical
Conditions: human, in vivo, T1/2
Property: half-life

Query: Read the entry Nc1ccccc1NC(=O)c1ccc(CNC(=O)OCc2cccnc2)cc1 and write its reported half-life.
Result: ~100 h

----------
Test: Plasma pharmacokinetics of oral SNDX-275 in adults with advanced acute leukemias (Example 3)
Type: in vivo, human
Conditions: human, plasma, oral, 6 mg/m2; 6 mg/m^2, first dose, with food, n = 5; read-out: AUC (mean and SD)
Property: AUC (ng·h/mL)
// units = ng·h/mL; emit number, no label

Query: Read the entry Nc1ccccc1NC(=O)c1ccc(CNC(=O)OCc2cccnc2)cc1 and write its reported AUC.
Result: 351

----------
Experiment: PK of SNDX-275 in patients with metastatic melanoma (Example 4)
Conditions: human, in vivo, 7 mg, day 1 of cycle 1
Property: Cmax (ng/mL)
// units = ng/mL; emit number, no label

Query: Read the entry Nc1ccccc1NC(=O)c1ccc(CNC(=O)OCc2cccnc2)cc1 [SNDX-275] and write its reported Cmax.
Result: 18.5

----------
Assay: PK of SNDX-275 in patients with metastatic melanoma (Example 4)
Settings: human, in vivo, 7 mg, day 1 of cycle 2
Property: Cmax
Write your answer as a measured quantity: the number, then the unit.

Query: Read the entry Nc1ccccc1NC(=O)c1ccc(CNC(=O)OCc2cccnc2)cc1 and write its reported Cmax.
Result: 23.3 ng/mL

----------
Assay: Plasma pharmacokinetics of oral SNDX-275 in patients with advanced and refractory solid tumors or lymphoma (Example 2)
Type: in vivo
Settings: human, plasma, oral, 6 mg/m2, 6 mg/m^2, q14-day, first dose, fed, 6 patients; read-out: AUC Mean
Procedure: The initial dosing schedule was daily oral administration for 28 days and 14-day recovery period, constituting a 42-day cycle. […] The area under the plasma concentration versus time curve (AUC) was calculated using the linear trapezoidal method from time zero to the time of the final quantifiable concentration (AUCtf). […]
Property: AUC (ng·h/mL)
// units = ng·h/mL; emit number, no label

Query: Read the entry Nc1ccccc1NC(=O)c1ccc(CNC(=O)OCc2cccnc2)cc1 [SNDX-275] and write its reported AUC.
Result: 493

----------
Assay: Plasma pharmacokinetics of oral SNDX-275 in patients with advanced and refractory solid tumors or lymphoma (Example 2)
Assay type: in vivo
Details: human, plasma, oral, all doses 2 to 12 mg/m^2, q14-day; read-out: Tmax Grand median
Property: Tmax (h)
// units = h; emit number, no label

Query: Read the entry Nc1ccccc1NC(=O)c1ccc(CNC(=O)OCc2cccnc2)cc1 [SNDX-275] and write its reported Tmax.
Result: 1.75

----------
Assay: clinical
Conditions: human, in vivo, 5 mg/m2, AUC
Property: AUC (ng·h/mL)
// units = ng·h/mL; emit number, no label

Query: Read the entry Nc1ccccc1NC(=O)c1ccc(CNC(=O)OCc2cccnc2)cc1 and write its reported AUC.
Result: 432

----------
Assay: clinical
Details: human, in vivo, 6 mg/m2, Mean t1/2
Experimental: Histone H3 and H4 acetylation was analyzed in peripheral blood mononuclear cells (PBMCs) by immunohistochemical detection. Blood samples (5 ml) were taken at the following times: Blood was centrifuged for 10 minutes at 2000 g at room temperature within approximately 30 minutes after withdrawal; plasma was separated and stored at −18° C. to −25° C. until analysis.
Property: half-life
Write your answer as a measured quantity: the number, then the unit.

Query: Read the entry Nc1ccccc1NC(=O)c1ccc(CNC(=O)OCc2cccnc2)cc1 and write its reported half-life.
Result: 107 h

----------
Experiment: clinical
Settings: human, in vivo, 6 mg/m2, Median Tmax
Property: Tmax

Query: Read the entry Nc1ccccc1NC(=O)c1ccc(CNC(=O)OCc2cccnc2)cc1 and write its reported Tmax.
Result: 1 h

----------
Assay: Plasma pharmacokinetics of oral SNDX-275 in adults with advanced acute leukemias (Example 3)
Format: in vivo, human
Settings: human, plasma, oral, 4 mg/m2; 4 mg/m^2, first dose, with food, 7 patients; read-out: Cmax (mean and SD)
Property: Cmax (ng/mL)
// units = ng/mL; emit number, no label

Query: Read the entry Nc1ccccc1NC(=O)c1ccc(CNC(=O)OCc2cccnc2)cc1 and write its reported Cmax.
Result: 4.74

----------
Experiment: clinical
Details: human, in vivo, 6 mg/m2, AUC
Property: AUC
Write your answer as a measured quantity: the number, then the unit.

Query: Read the entry Nc1ccccc1NC(=O)c1ccc(CNC(=O)OCc2cccnc2)cc1 and write its reported AUC.
Result: 412 ng·h/mL

----------
Test: Plasma pharmacokinetics of oral SNDX-275 in patients with advanced and refractory solid tumors or lymphoma (Example 2)
Type: in vivo
Details: human, plasma, oral, 4 mg/m2, 4 mg/m^2, q14-day, first dose, fed, 3 patients; read-out: Tmax Median
Property: Tmax (h)
// units = h; emit number, no label

Query: Read the entry Nc1ccccc1NC(=O)c1ccc(CNC(=O)OCc2cccnc2)cc1 and write its reported Tmax.
Result: 6

----------
Assay: PK of SNDX-275 in patients with metastatic melanoma (Example 4)
Conditions: human, in vivo; 7 mg dose; read-out: concentration 8 hours after the dose
Property: concentration at 8 h

Query: Read the entry Nc1ccccc1NC(=O)c1ccc(CNC(=O)OCc2cccnc2)cc1 [SNDX-275] and write its reported concentration at 8 h.
Result: ~2 ng/mL

----------
Experiment: Plasma pharmacokinetics of oral SNDX-275 in adults with advanced acute leukemias (Example 3)
Type: in vivo, human
Details: human, plasma, oral, 6 mg/m2; 6 mg/m^2, first dose, with food, 7 patients; read-out: Cmax (mean and SD)
Property: Cmax (ng/mL)
// units = ng/mL; emit number, no label

Query: Read the entry Nc1ccccc1NC(=O)c1ccc(CNC(=O)OCc2cccnc2)cc1 and write its reported Cmax.
Result: 4.87

----------
Assay: Plasma pharmacokinetics of oral SNDX-275 in patients with advanced and refractory solid tumors or lymphoma (Example 2)
Assay type: in vivo
Conditions: human, plasma, oral, 8 mg/m2, 8 mg/m^2, q14-day, first dose, fed, 5 patients; read-out: Tmax Median
Property: Tmax

Query: Read the entry Nc1ccccc1NC(=O)c1ccc(CNC(=O)OCc2cccnc2)cc1 and write its reported Tmax.
Result: 2 h

----------
Test: Plasma pharmacokinetics of oral SNDX-275 in patients with advanced and refractory solid tumors or lymphoma (Example 2)
Assay type: in vivo
Details: human, plasma, oral, 6 mg/m2, 6 mg/m^2, q14-day, first dose, fed, 6 patients; read-out: t1/2 Mean (converted)
Property: half-life (days)
// units = days; emit number, no label

Query: Read the entry Nc1ccccc1NC(=O)c1ccc(CNC(=O)OCc2cccnc2)cc1 and write its reported half-life.
Result: 2.2

----------
Experiment: clinical
Conditions: human, in vivo, 5 mg/m2, Mean AUC
Property: AUC

Query: Read the entry Nc1ccccc1NC(=O)c1ccc(CNC(=O)OCc2cccnc2)cc1 [SNDX-275] and write its reported AUC.
Result: 494 ng·h/mL

----------
Experiment: Plasma pharmacokinetics of oral SNDX-275 in patients with advanced and refractory solid tumors or lymphoma (Example 2)
Assay type: in vivo
Conditions: human, plasma, oral, n=23; FIG. 6; read-out: mean AUC in patients without DLT
Property: AUC
Write your answer as a measured quantity: the number, then the unit.

Query: Read the entry Nc1ccccc1NC(=O)c1ccc(CNC(=O)OCc2cccnc2)cc1 and write its reported AUC.
Result: 280 ng·h/mL

----------
Experiment: Plasma pharmacokinetics of oral SNDX-275 in adults with advanced acute leukemias (Example 3)
Type: in vivo, human
Conditions: human, plasma, oral, All doses, 35 patients; read-out: Tmax (median)
Property: Tmax

Query: Read the entry Nc1ccccc1NC(=O)c1ccc(CNC(=O)OCc2cccnc2)cc1 [SNDX-275] and write its reported Tmax.
Result: ~2 h
